assay: Clearance in mouse liver microsomes; assay type: ADME, microsome; details: read-out: CLH
property.label: microsomal CLint (µL/min/mg)
Form entry: value (µL/min/mg) — number only.

smiles.notation	property.label	assay.value
CS(=O)(=O)c1ccc2c(c1)CCN2c1ncnc2c(C3CCN(c4ncc(O)cn4)CC3)coc12	microsomal CLint	107
CS(=O)(=O)c1ccc2c(c1)CCN2c1ncnc2c(C3CCN(c4ncc(Cl)cn4)CC3)coc12	microsomal CLint	108
CS(=O)(=O)c1ccc2c(c1)CCN2c1ncnc2c(C3CCN(c4ncc(F)cn4)CC3)coc12	microsomal CLint	154
COc1cnc(N2CCC(c3coc4c(N5CCc6cc(S(C)(=O)=O)ccc65)ncnc34)CC2)nc1	microsomal CLint	189

Would you kindly look at the next entry?
Q. GET /values?readout=microsomal CLint&item= CC(=O)c1cnc(N2CCC(c3coc4c(N5CCc6cc(S(C)(=O)=O)ccc65)ncnc34)CC2)nc1
A. 154

* * *

molecular target: Glucose-dependent insulinotropic receptor (Homo sapiens, UniProt Q8TDV5); test: Agonist activity at human GPR119 expressed in CHOK1 cells co-expressing CRE-luciferase incubated for 4 hrs by luciferase reporter gene assay; assay type: functional, cell-based; details: read-out: EC50
Sequence (Q8TDV5 whole entry): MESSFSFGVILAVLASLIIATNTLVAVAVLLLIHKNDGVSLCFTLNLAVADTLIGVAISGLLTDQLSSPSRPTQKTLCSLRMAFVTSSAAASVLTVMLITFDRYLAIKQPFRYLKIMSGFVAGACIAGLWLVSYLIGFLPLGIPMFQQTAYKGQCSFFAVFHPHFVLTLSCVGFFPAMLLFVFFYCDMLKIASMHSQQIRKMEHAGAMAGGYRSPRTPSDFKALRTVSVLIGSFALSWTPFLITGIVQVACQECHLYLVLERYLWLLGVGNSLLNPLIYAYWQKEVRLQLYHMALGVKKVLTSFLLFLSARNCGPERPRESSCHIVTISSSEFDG
Under this convention, true denotes EC50 strictly below 0.1 µM and false denotes EC50 at or above 0.1 µM.

Answered examples (5):
smiles.notation	study.system	label.value
CC(C)(C)OC(=O)N1CCC(c2coc3c(N4CCCc5cc(S(C)(=O)=O)ccc54)ncnc23)CC1	Glucose-dependent insulinotropic receptor (Homo sapiens, UniProt Q8TDV5)	false
CN(c1ccc(S(C)(=O)=O)cc1F)c1ncnc2c(C3CCN(C(=O)OC(C)(C)C)CC3)coc12	Glucose-dependent insulinotropic receptor (Homo sapiens, UniProt Q8TDV5)	false
CC(C)(C)OC(=O)N1CCC(c2coc3c(Nc4ccc(S(C)(=O)=O)cc4F)ncnc23)CC1	Glucose-dependent insulinotropic receptor (Homo sapiens, UniProt Q8TDV5)	false
CS(=O)(=O)c1ccc2c(c1)CCN2c1ncnc2c(C3CCN(c4ncc(Cl)cn4)CC3)coc12	Glucose-dependent insulinotropic receptor (Homo sapiens, UniProt Q8TDV5)	true
CC(C)(C)OC(=O)N1CCC(c2csc3c(Nc4ccc(S(C)(=O)=O)cc4F)ncnc23)CC1	Glucose-dependent insulinotropic receptor (Homo sapiens, UniProt Q8TDV5)	true

Below: the item to evaluate.
Q. Take the compound CC(C)(C)OC(=O)N1CCC(c2coc3c(N4CCc5cc(S(C)(=O)=O)ccc54)ncnc23)CC1 and say whether its EC50 is less than 0.1 µM.
A. true

* * *

experiment: Volume of distribution at steady state in mouse at 0.5 mg/kg, iv; type: ADME, organism-based; settings: in vivo, read-out: Vdss
property.label: Vd (L/kg)
Just the number please, in L/kg, no unit attached.

Q. What does the data say about its Vd? Entry: CS(=O)(=O)c1ccc2c(c1)CCN2c1ncnc2c(C3CCN(c4ncc(Cl)cn4)CC3)coc12
A. 2.3

* * *

target: Glucose-dependent insulinotropic receptor (Homo sapiens) (UniProt Q8TDV5); test: Agonist activity at human GPR119 expressed in CHOK1 cells co-expressing CRE-luciferase incubated for 4 hrs by luciferase reporter gene assay relative to 100 nM AR231453; assay type: functional, cell-based
Assign 1 (yes) to entries whose Emax meets or exceeds 80%; assign 0 (no) to the rest.

Answered cases to consult:
molecule	study.system	label.value
COc1cnc(N2CCC(c3coc4c(N5CCc6cc(S(C)(=O)=O)ccc65)ncnc34)CC2)nc1	Glucose-dependent insulinotropic receptor (Homo sapiens) (UniProt Q8TDV5)	1 (yes)
CC(O)c1cnc(N2CCC(c3coc4c(N5CCc6cc(S(C)(=O)=O)ccc65)ncnc34)CC2)nc1 (centres undefined)	Glucose-dependent insulinotropic receptor (Homo sapiens) (UniProt Q8TDV5)	0 (no)
CS(=O)(=O)c1ccc2c(c1)CCN2c1ncnc2c(C3CCN(c4ncccn4)CC3)coc12	Glucose-dependent insulinotropic receptor (Homo sapiens) (UniProt Q8TDV5)	1 (yes)

Q. Is Emax for CCc1cnc(N2CCC(c3coc4c(N5CCc6cc(S(C)(=O)=O)ccc65)ncnc34)CC2)nc1 at or above 80%?
A. 1 (yes)

Q. Same question, Cc1cnc(N2CCC(c3coc4c(N5CCc6cc(S(C)(=O)=O)ccc65)ncnc34)CC2)nc1 this time
A. 1 (yes)

Q. Likewise for CC(C)(C)OC(=O)N1CCC(c2c[nH]c3c(Nc4ccc(S(C)(=O)=O)cc4F)ncnc23)CC1 ?
A. 0 (no)

Q. Same read-out for CN(c1ccc(S(C)(=O)=O)cc1F)c1ncnc2c(C3CCN(C(=O)OC(C)(C)C)CC3)coc12 ?
A. 0 (no)

Q. Next molecule up: CS(=O)(=O)c1ccc2c(c1)CCN2c1ncnc2c(C3CCN(c4ncc(O)cn4)CC3)coc12
A. 1 (yes)
